experiment: in vivo; design: species or system DD strain male mice; details: mouse, ip, intraperitoneal, one week after administration, read-out: Acute toxicity LD50
quantity_measured: LD50 at 168 h (mg/kg)
Write the answer as a number in mg/kg, unit excluded.

• CCOC1Nc2c(ccc(OC)c2OC(C)=O)C(=O)N2CCCC12 (centres unmarked) [Example 30] = 12.7
• CC(=O)Oc1cccc2c1NC(O)C1CCCN1C2=O (centres unmarked) [Example 23] = 12.7

Kindly indicate its recorded LD50 at 168 h. Item: Cc1ccc2c(c1O)N=CC1CCCN1C2=O (centres unmarked) [Example 8]
13.6

Recall and state the measured LD50 at 168 h for CCOC1Nc2c(ccc(C)c2O)C(=O)N2CCCC12 (centres unmarked) [Example 7] .
13.3

Give the measured LD50 at 168 h for COc1ccc2c(c1O)N=CC1CCCN1C2=O (centres unmarked) [Example 10]
13.3

For the compound CCOC1Nc2c(OC(C)=O)cccc2C(=O)N2CCCC12 (centres unmarked) [Example 26] , report LD50 at 168 h.
13.2

Look up and state reported LD50 at 168 h for CC(=O)Oc1c(C)ccc2c1NC(O)C1CCCN1C2=O (centres unmarked) [Example 22]
13.5

Answer with reported LD50 at 168 h of CCOC1Nc2c(ccc(C)c2OC(C)=O)C(=O)N2CCCC12 (centres unmarked) [Example 18]
12.8

Recall and state the measured LD50 at 168 h for COc1ccc2c(c1O)NC(O)C1CCCN1C2=O (centres unmarked) [Example 16] .
12.6

Report measured LD50 at 168 h; entry is O=C1c2cccc(O)c2N=CC2CCCN12 (centres unmarked) [Example 9]
13.1

====

assay: in vivo; design: species or system DD strain male mice; details: mouse, ip
quantity_measured: LD50 at 168 h (mg/kg)
Report only the number, with the unit mg/kg understood.

// Input: COC1Nc2c(ccc(C)c2O)C(=O)N2CCCC12 (stereo not shown) . Output its LD50 at 168 h only.
13.8

====

Recorded LD50 at 168 h, one value per entry.
experiment: in vivo; parameters: species or system DD strain male mice; details: mouse, ip, intraperitoneal, one week after administration, read-out: Acute toxicity LD50
Give the value, in units of mg/kg, as a plain number.

Worked examples, 5 molecules total:
* COc1ccc2c(c1O)NC(OC)C1CCCN1C2=O (stereo not shown) [15, 6] | 12.7
* CCOC1Nc2c(ccc(OC)c2O)C(=O)N2CCCC12 (stereo not shown) [Example 29] | 12.2
* COC1Nc2c(ccc(C)c2OC(C)=O)C(=O)N2CCCC12 (stereo not shown) [17, 21] | 13.9
* COc1ccc2c(c1OC(C)=O)NC(OC)C1CCCN1C2=O (stereo not shown) [Example 28] | 12.3
* COC1Nc2c(OC(C)=O)cccc2C(=O)N2CCCC12 (stereo not shown) [24, 33] | 12.4

For the molecule O=C1c2cccc(O)c2NC(O)C2CCCN12 (stereo not shown) [Example 14] , give its measured LD50 at 168 h value.
12.5

Annotate the molecule Cc1ccc2c(c1O)NC(O)C1CCCN1C2=O (stereo not shown) [Example 12] with its measured LD50 at 168 h.
12.9

Name the recorded LD50 at 168 h of the item COC1Nc2c(O)cccc2C(=O)N2CCCC12 (stereo not shown) [5, 13] in your answer.
12.8

Give reported LD50 at 168 h value for CCOC1Nc2c(O)cccc2C(=O)N2CCCC12 (stereo not shown) [Example 25]
13

====

test: in vivo; parameters: species or system DD strain male mice; details: mouse, ip, intraperitoneal, one week after administration, read-out: Acute toxicity LD50
This listing pairs compounds with measured LD50 at 168 h.
Hi! Could you send only the number? It should be in mg/kg, unit omitted.

* CC(=O)Oc1c(C)ccc2c1N=CC1CCCN1C2=O (stereo not shown) | 12.8
* CC(=O)Oc1cccc2c1N=CC1CCCN1C2=O (stereo not shown) | 13.4
* COc1ccc2c(c1OC(C)=O)N=CC1CCCN1C2=O (stereo not shown) | 13.7

Kindly consider the entry below.
State, in one line, measured LD50 at 168 h of COc1ccc2c(c1OC(C)=O)NC(O)C1CCCN1C2=O (stereo not shown)
12.4
